B1: VH:VL chains; a variant is named by its letters at X, in order (parent)
chain 1: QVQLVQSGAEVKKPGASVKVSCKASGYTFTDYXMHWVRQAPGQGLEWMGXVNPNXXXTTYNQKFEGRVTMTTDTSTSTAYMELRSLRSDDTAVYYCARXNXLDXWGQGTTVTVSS
chain 2: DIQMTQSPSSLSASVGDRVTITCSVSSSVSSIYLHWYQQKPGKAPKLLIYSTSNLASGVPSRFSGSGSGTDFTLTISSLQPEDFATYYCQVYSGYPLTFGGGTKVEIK

Variants of: B1
Assay explanation: yeast display scFab, FACS + sequencing
Experimental context: with MET
The list shows a part of the results. No count for the full screen is at hand.
Measure name: antigen binding call

Below: 4 variants and their reported antigen binding call.
Mutant name | antigen binding call
VRTEDDVF | no binding
VTGGDDWY | no binding
VTGEDSLV | no binding
VTAESSSF | no binding

GET /values?readout=antigen binding call&item= DRGRDAGD
no binding

Again, but for VRGKAFVV
no binding

Again, but for VRRGSFGA
no binding

Again, but for DRGGSAGD
binds

Again, but for YRGKDAWS
binds

Again, but for FRKGDASD
no binding

Again, but for AETKGAVA
no binding

Again, but for YRARSASV
binds

Again, but for VEGAADVD
no binding

Again, but for DTGTGDWV
no binding

Again, but for YAGKGAWV
no binding

Again, but for VRERGSSF
binds

Again, but for SAGEGSLV
no binding

Again, but for YRARSAVD
binds

Again, but for FAGRGYSD
no binding

Again, but for DAGGGAGD
no binding

Again, but for FKGRGSGY
binds

Again, but for YKGKSAWV
binds

Again, but for DRAGDDWA
no binding

Again, but for YAGTGDLV
no binding

Again, but for DEGGTAVV
no binding

Again, but for VRAGADVV
no binding

Again, but for DRAGDAGV
no binding

Again, but for DRTTNAGD
no binding
